Tested on: ABCA1 protein
Test: Detection of upregulation of ABCA1 protein in THP-1 macrophage cells (ApoA-I binding, high content imaging)
Assay type: cell-based
Conditions: 24 hrs with compound, AlexaFluor 647 ApoA-I binding, read-out: ABCA1 protein increasing efficacy EC50
observation_type: EC50 (nM)
Output spec: scalar in nM, unitless text.

Qu. Query (molecule): Cc1cc(-c2cc(C(=O)NCc3nc(C(F)(F)F)no3)cnc2OCC(F)(F)F)ccc1Cl [Example 72] ; field requested: EC50
Ans. 500

Qu. Consider the molecule shown here: O=C(NCc1nc(C2CC2)no1)c1cc(-c2ccc(Cl)cc2)c(OCC(F)(F)F)nn1 [Example 48] What is its recorded EC50?
Ans. 730

Qu. Which EC50 value belongs to CCc1cc(CNC(=O)c2cc(-c3ccc(Cl)cc3)c(OCC(F)(F)F)cn2)on1 [Example 3] ?
Ans. 1240

Qu. Need EC50 of O=C(NCc1nc(C(F)(F)F)no1)c1cc(-c2ccc(Cl)cc2)c(OCC2CC2)cn1 [Example 18] , thanks.
Ans. 6910
